List of IC50 values.
- Assayed Target: HIS-TGF-βR1 T204D (Homo sapiens (Human), UniProt P36897, T204D)
- Sequence (P36897 34-503 T204D): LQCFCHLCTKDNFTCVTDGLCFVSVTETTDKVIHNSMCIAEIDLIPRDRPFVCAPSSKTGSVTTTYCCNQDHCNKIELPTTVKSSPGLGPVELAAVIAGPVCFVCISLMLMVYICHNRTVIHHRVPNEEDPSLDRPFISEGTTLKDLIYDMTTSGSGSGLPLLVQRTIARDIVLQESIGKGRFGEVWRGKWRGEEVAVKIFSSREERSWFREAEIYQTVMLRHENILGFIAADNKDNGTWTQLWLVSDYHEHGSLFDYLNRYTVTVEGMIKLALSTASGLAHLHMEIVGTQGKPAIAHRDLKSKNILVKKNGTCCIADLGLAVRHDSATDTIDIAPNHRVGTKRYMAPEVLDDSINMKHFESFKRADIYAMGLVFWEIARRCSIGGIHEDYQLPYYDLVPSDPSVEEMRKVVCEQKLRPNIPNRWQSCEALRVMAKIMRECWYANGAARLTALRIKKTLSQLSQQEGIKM
- Procedure Summary: HTRF probe displacement assay with HIS-TGF-βR1 T204D
- Conditions: read-out: TGFbr1 IC50; HTRF probe displacement, 1 nM HIS-TGF-βR1 T204D, 1 hour at room temperature
Recorded Endpoint: IC50 (nM)

> print(dat)
                                   compound  recorded.endpoint   u  numeric.result
1  NC(=O)c1cnc2ccc(-c3c(-c4ccc(F)cc4)ncn3CCCO)cn12               IC50  nM             4.9
2  N#Cc1cnc2ccc(-c3c(-c4cccc(CO)c4)ncn3CC(F)F)nn12               IC50  nM               5
3  CC(C)(C)C(=O)NCc1cnc2ccc(-c3c(-c4ccc(F)cc4)ncn3CC(F)F)nn12               IC50  nM            43.8
4  NC(=O)c1cnc2ccc(-c3c(-c4ccc(F)cc4)ncn3C[C@H](O)CO)cn12               IC50  nM             6.7
5  CC(O)CCn1cnc(-c2ccc(F)cc2)c1-c1ccc2ncc(C(N)=O)n2c1 (stereo not shown)               IC50  nM             4.3
6  CC(C)n1cnc(-c2ccc(F)cc2)c1-c1ccc2ncc(C(N)=O)n2c1               IC50  nM             0.5
7  CC(C)Cn1cnc(-c2ccc(F)cc2)c1-c1ccc2ncc(C#N)n2c1               IC50  nM            71.6

---

- Assayed Target: HIS-TGF-βR1 T204D (Homo sapiens (Human), UniProt P36897, T204D)
- Procedure Summary: HTRF probe displacement assay with HIS-TGF-βR1 T204D
- Conditions: read-out: TGFbr1 IC50; HTRF probe displacement, 1 nM HIS-TGF-βR1 T204D, 1 hour at room temperature
List of IC50 values.
Recorded Endpoint: IC50 (nM)

> print(dat)
                                   compound  recorded.endpoint  numeric.result
1  N#Cc1cnc2ccc(-c3c(-c4ccc(F)cc4)ncn3C3COC3)nn12               IC50              17
2  N#Cc1cnc2ccc(-c3c(-c4ccccc4CO)ncn3CC(F)F)nn12               IC50               7
3  CCOC(=O)c1cnc2ccc(-c3c(-c4ccc(F)cc4)ncn3CC(F)F)cn12 [274C′]               IC50               7
4  N#Cc1cnc2ccc(-c3c(-c4ccc(F)cc4)nc4n3CCC4)cn12 [283B′]               IC50            13.8

---

- Assayed Target: HIS-TGF-βR1 T204D (Homo sapiens (Human), UniProt P36897, T204D)
- Procedure Summary: HTRF probe displacement assay with HIS-TGF-βR1 T204D
- Conditions: read-out: TGFbr1 IC50; HTRF probe displacement, 1 nM HIS-TGF-βR1 T204D, 1 hour at room temperature
pIC50: −log10 of the molar value.
pIC50 of 8 or higher: met. Under 8: not met.

> print(dat)
                                    molecule                            assayed.target  group.label
 1  CC(C)(O)CCn1cnc(-c2ccc(F)c(Cl)c2)c1-c1ccc2ncc(C#N)n2n1 [37′]  HIS-TGF-βR1 T204D (Homo sapiens (Human), UniProt P36897, T204D)          met
 2  N#Cc1cnc2ccc(-c3c(-c4ccc(F)c(Cl)c4)ncn3CC(F)F)nn12 [33′]  HIS-TGF-βR1 T204D (Homo sapiens (Human), UniProt P36897, T204D)          met
 3  CCn1cnc(-c2ccc(F)cc2)c1-c1ccc2ncc(C#N)n2c1 [73′]  HIS-TGF-βR1 T204D (Homo sapiens (Human), UniProt P36897, T204D)      not met
 4  CC(=O)Nc1nc(-c2ccc(F)cc2)c(-c2ccc3nccn3c2)[nH]1 [Example 295′]  HIS-TGF-βR1 T204D (Homo sapiens (Human), UniProt P36897, T204D)      not met
 5  N#Cc1cnc2ccc(-c3c(-c4ccc(F)cc4)ncn3CCCO)cn12 [75′]  HIS-TGF-βR1 T204D (Homo sapiens (Human), UniProt P36897, T204D)      not met
 6  CCC(C)n1cnc(-c2ccc(F)cc2)c1-c1ccc2ncc(C(N)=O)n2c1 (centres unmarked) [174′]  HIS-TGF-βR1 T204D (Homo sapiens (Human), UniProt P36897, T204D)          met
 7  CC(C)(F)Cn1cnc(-c2ccc(F)c(Cl)c2)c1-c1ccc2ncc(C#N)n2n1 [57′]  HIS-TGF-βR1 T204D (Homo sapiens (Human), UniProt P36897, T204D)          met
 8  N#Cc1cnc2ccc(-c3c(-c4ccc(F)cc4)ncn3CCCO)nn12 [15′]  HIS-TGF-βR1 T204D (Homo sapiens (Human), UniProt P36897, T204D)          met
 9  CC(CCO)n1cnc(-c2ccc(F)cc2)c1-c1ccc2ncc(C(N)=O)n2c1 (centres unmarked) [154′]  HIS-TGF-βR1 T204D (Homo sapiens (Human), UniProt P36897, T204D)          met
10  CC(C)(O)CCn1cnc(-c2ccc(F)c(Cl)c2)c1-c1ccc2ncc(C(N)=O)n2n1 [139′]  HIS-TGF-βR1 T204D (Homo sapiens (Human), UniProt P36897, T204D)          met
11  Fc1ccc(-c2ncn(CC(F)F)c2-c2ccc3nncn3c2)cc1 [Example 281′]  HIS-TGF-βR1 T204D (Homo sapiens (Human), UniProt P36897, T204D)      not met
12  N#Cc1cnc2ccc(-c3c(-c4ccc(F)cc4)ncn3C[C@@H](O)CO)cn12 [71′]  HIS-TGF-βR1 T204D (Homo sapiens (Human), UniProt P36897, T204D)      not met
13  NC(=O)c1cnc2ccc(-c3c(-c4ccc(F)c(Cl)c4)ncn3CCC3CCC3)nn12 [150′]  HIS-TGF-βR1 T204D (Homo sapiens (Human), UniProt P36897, T204D)          met

---

- Assayed Target: HIS-TGF-βR1 T204D (Homo sapiens (Human), UniProt P36897, T204D)
- Procedure Summary: HTRF probe displacement assay with HIS-TGF-βR1 T204D
- Conditions: read-out: TGFbr1 IC50; HTRF probe displacement, 1 nM HIS-TGF-βR1 T204D, 1 hour at room temperature
Recorded Endpoint: log10 IC50 (log10 of the value in nM)

> print(dat)
                                    compound  numeric.result
 1  COC(=O)Nc1cnc2ccc(-c3c(-c4ccc(F)cc4)ncn3CC(F)F)cn12            2.63
 2  N#Cc1cnc2ccc(-c3c(-c4ccc(F)c(Cl)c4)ncn3[C@H]3C[C@@H](O)C3)nn12           -0.05
 3  NC(=O)c1cnc2ccc(-c3c(-c4ccc(F)c(Cl)c4)ncn3CC(F)F)nn12           -0.05
 4  CC(C)Oc1ccc(-c2ncn(CC(F)F)c2-c2ccc3ncc(C#N)n3n2)cc1            2.23
 5  CC(CO)n1cnc(-c2ccc(F)cc2)c1-c1ccc2ncc(C#N)n2c1 (centres unmarked)            1.95
 6  N#Cc1cnc2ccc(-c3c(-c4ccc(F)cc4)ncn3[C@H](CO)CC(F)(F)F)nn12            0.81
 7  N#Cc1cnc2ccc(-c3c(-c4ccc(F)c(Cl)c4)ncn3CCCF)cn12            1.37
 8  N#Cc1cnc2ccc(-c3c(-c4ccc(F)c(F)c4)ncn3CC(F)F)cn12            1.86
 9  NC(=O)c1cnc2ccc(-c3c(-c4ccc(F)c(Cl)c4)ncn3CCCO)nn12            0.20
10  NC(=O)c1cnc2ccc(-c3c(-c4ccc(F)cc4)nc4n3CCN(CC(F)F)C4)cn12            1.43
11  CCn1cnc(-c2ccc(F)c(Cl)c2)c1-c1ccc2ncc(C#N)n2n1           -0.05
12  NC(=O)c1cnc2ccc(-c3c(-c4ccc(F)cc4)ncn3C34CC(C3)C4)nn12            1.09
13  CC(C)(C)NC(=O)N1CC(n2cnc(-c3ccc(F)cc3)c2-c2ccc3ncc(C(N)=O)n3n2)C1            2.64
14  Cn1cnc(-c2ccc(F)c(F)c2)c1-c1ccc2cn[nH]c2c1            1.80
15  NC(=O)c1cnc2ccc(-c3c(-c4ccc(F)c(Cl)c4)ncn3CCF)nn12            0.11
16  NC(=O)c1cnc2ccc(-c3c(-c4cc(Cl)c(F)cc4F)ncn3CC(F)F)cn12            0.00
17  N#Cc1cnc2ccc(-c3c(-c4ccc(F)c(Cl)c4)ncn3CCO)cn12            1.06
18  N#Cc1cnc2ccc(-c3c(-c4ccc(F)cc4)ncn3CC3CCC3)cn12            1.83
19  Fc1ccc(-c2ncn([C@@H]3CCC(F)(F)C3)c2-c2ccc3nccn3c2)cc1Cl            1.48
20  CC(C)(O)c1cnc2ccc(-c3c(-c4ccc(F)cc4)ncn3CC(F)F)cn12            2.26
21  N#Cc1cnc2ccc(-c3c(-c4cccc(C(N)=O)c4)ncn3CC(F)F)nn12            2.94
22  NC(=O)c1cnc2ccc(-c3c(-c4ccc(F)cc4)ncn3C3CC3)nn12            0.40
23  N#Cc1cnc2ccc(-c3c(-c4ccc(F)c(Cl)c4)ncn3CCCO)nn12            0.00
24  CCC(CC)n1cnc(-c2ccc(F)cc2)c1-c1ccc2ncc(C#N)n2c1            2.18
25  N#Cc1cnc2ccc(-c3c(-c4ccccc4C(N)=O)ncn3CC(F)F)nn12            1.87
26  N#Cc1cnc2ccc(-c3c(-c4ccc(F)cc4)ncn3C3CCCC3)cn12            1.98
27  Cc1ccc(-c2ncn(CC(F)F)c2-c2ccc3ncc(C#N)n3n2)cc1            2.24
28  CCC(CO)n1cnc(-c2ccc(F)cc2)c1-c1ccc2ncc(C#N)n2c1 (centres unmarked)            2.28
29  CC(=O)Nc1cccc(-c2ncn(CC(F)F)c2-c2ccc3ncc(C#N)n3n2)c1            1.69
